protocol: amyloid nucleation score (Sup35N fusion, yeast selection) (log enrichment); library NNK1; higher = more nucleation; inactive = no reads after selection;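 further: zero at mode of non-aggregating sequences after 7 days selection at 30°C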
measured-quantity: amyloid nucleation score
// return a plain number; no unit text

// query Query (substance): `VWMYMHAFCYSTGRRKAMPG` ; field requested: amyloid nucleation score
// result -1.76

// query Subsequent entry: `SGYMWMFMSHRNEFRTEVRW`
// result 0.385

// query And the next one, `VTIAHNGNLSCRLYTYVQVR` ?
// result 0.515

// query And then `IRGTFRVSYGNGKCNSVMNY` , what is it?
// result 0.201

// query Same question, `GALVCRCDGCYKSMGKAIMA` this time
// result -0.243

// query Try this substance too: `IFAQKGYTSRFSILM`
// result -0.565

// query // query: `ELIIRTRLAVEELLMKACFV`
// result -0.498

// query Request: `YYESRNWSILFRLINMF`
// result -0.078

// query Would you kindly repeat that for `TRAAYLGRGREMRCIKVAFW` ?
// result 1.31

// query Try this substance too: `ANNNEYRFWTTSYW`
// result 0.041

// query Likewise for `GVSVSYLDGGMAWPNEGGRK` ?
// result 0.19

// query What about this substance? `AYEGKGITGHLIFSWKSKSL`
// result 1.55

// query Moving on to `SIRVSDYQRVFNNIGMSNCN`
// result -0.454

// query What about `HHAGPSG` ?
// result 0.72

// query What about `GWNVTEIYFFMWVRITSGWM` ?
// result 2.27

// query Queued: `KLIFKRSFNRMDLSSLCYFR`
// result -0.471

// query Now consider `LWNCKIVVWSFIGSVCTTGK` and answer again.
// result 2.29

// query Follow-up item: `LVLQRDIGSACVDCHGVGKA`
// result 1.17

// query Ok, now `GNDLNRREVELGLNSIYKSY`
// result 0.711

// query Record: `WQVNVLIIMCGSFLLVFDFQ`
// result 0.359

// query And then `TTYYRFNVDKTFSAVISAEF` , what is it?
// result -1.02

// query Similarly, `FNLRKRRA` ?
// result 0.205

// query Repeat with `LWYVAPHVTRSNFEVQGGCG`
// result -0.249

// query Now the substance `LTYLNMALVCRFFYVFRHDW`
// result 0.799

// query What do you have for `ILPAYAQ` ?
// result 0.134

// query Try the substance `FLLLCRSFFSARTILRCTMV`
// result 0.631

// query Try the substance `DHASIGMALYCFCYQVSFIL`
// result 0.391

// query And for `CLVERATITHFASCVEAYFY` ?
// result -0.224
